Assay: Partition coefficient (log P butanol/buffer)
Assay type: physicochemical
Conditions: 1-butanol / 50 mM Tris-HCl, pH 7.4, room temperature
Classify by measured Log P (partition coefficient butanol/buffer): yes (1) if it is equal to or exceeds -1, no (0) if it is smaller.

q: Check the entry CCOCCOCCOc1ccc(CC(C(=O)O)N2CCN(CC(=O)[O-])CCN(CC(=O)[O-])CCN(CC(=O)[O-])CC2)cc1.[Gd+3] (centres unmarked) [Example 2] : does Log P (partition coefficient butanol/buffer) equal or exceed -1?
a: no (0)

q: Check the entry CCCCOc1ccc(CCCC[C@@H](C(=O)O)N2CCN([C@@H](CO)C(=O)[O-])CCN([C@@H](CO)C(=O)[O-])CCN([C@@H](CO)C(=O)[O-])CC2)cc1.[Gd+3] [Example 9] : does Log P (partition coefficient butanol/buffer) equal or exceed -1?
a: yes (1)

q: Check the entry O=C([O-])CN1CCN(CC(=O)[O-])CCN([C@H](CO)[C@H](O)CO)CCN(CC(=O)[O-])CC1.[Gd+3] (racemic) [RC3, gadobutrol, reference compound] : does Log P (partition coefficient butanol/buffer) equal or exceed -1?
a: no (0)

q: Check the entry CCOCCOCCOCCOc1ccc(CC(C(=O)O)N2CCN(CC(=O)[O-])CCN(CC(=O)[O-])CCN(CC(=O)[O-])CC2)cc1.[Gd+3] (centres unmarked) [Example 10] : does Log P (partition coefficient butanol/buffer) equal or exceed -1?
a: no (0)

q: Check the entry CCOCCOCCOCCOc1ccc(C[C@@H](C(=O)O)N2CCN(CC(=O)[O-])CCN(CC(=O)[O-])CCN(CC(=O)[O-])CC2)cc1.[Gd+3] [Example 11] : does Log P (partition coefficient butanol/buffer) equal or exceed -1?
a: no (0)

q: Check the entry CCOCCOCCOc1ccc(CCC[C@H](C(=O)O)N2CCN([C@@H](CO)C(=O)[O-])CCN([C@@H](CO)C(=O)[O-])CCN([C@@H](CO)C(=O)[O-])CC2)cc1.[Gd+3] [Example 18] : does Log P (partition coefficient butanol/buffer) equal or exceed -1?
a: no (0)

q: Check the entry CCOCCOCCOc1ccc(CCC[C@H](C(=O)O)N2CCN([C@H](CO)C(=O)[O-])CCN([C@H](CO)C(=O)[O-])CCN([C@H](CO)C(=O)[O-])CC2)cc1.[Gd+3] [Example 19] : does Log P (partition coefficient butanol/buffer) equal or exceed -1?
a: yes (1)

q: Check the entry CCOCCOCCOCCOc1ccc(C[C@@H](C(=O)O)N2CCN(CC(=O)[O-])CCN(CC(=O)[O-])CCN(CC(=O)[O-])CC2)c(OCCOCCOCCOCC)c1.[Gd+3] [Example 40] : does Log P (partition coefficient butanol/buffer) equal or exceed -1?
a: no (0)

q: Check the entry CCOCCOc1ccc(CC(C(=O)O)N2CCN(CC(=O)[O-])CCN(C(COC)C(=O)[O-])CCN(CC(=O)[O-])CC2)cc1.[Gd+3] (centres unmarked) [Example 38] : does Log P (partition coefficient butanol/buffer) equal or exceed -1?
a: no (0)

---

Target: OATP1B1 (Homo sapiens)
Sequence (Q9Y6L6 whole entry): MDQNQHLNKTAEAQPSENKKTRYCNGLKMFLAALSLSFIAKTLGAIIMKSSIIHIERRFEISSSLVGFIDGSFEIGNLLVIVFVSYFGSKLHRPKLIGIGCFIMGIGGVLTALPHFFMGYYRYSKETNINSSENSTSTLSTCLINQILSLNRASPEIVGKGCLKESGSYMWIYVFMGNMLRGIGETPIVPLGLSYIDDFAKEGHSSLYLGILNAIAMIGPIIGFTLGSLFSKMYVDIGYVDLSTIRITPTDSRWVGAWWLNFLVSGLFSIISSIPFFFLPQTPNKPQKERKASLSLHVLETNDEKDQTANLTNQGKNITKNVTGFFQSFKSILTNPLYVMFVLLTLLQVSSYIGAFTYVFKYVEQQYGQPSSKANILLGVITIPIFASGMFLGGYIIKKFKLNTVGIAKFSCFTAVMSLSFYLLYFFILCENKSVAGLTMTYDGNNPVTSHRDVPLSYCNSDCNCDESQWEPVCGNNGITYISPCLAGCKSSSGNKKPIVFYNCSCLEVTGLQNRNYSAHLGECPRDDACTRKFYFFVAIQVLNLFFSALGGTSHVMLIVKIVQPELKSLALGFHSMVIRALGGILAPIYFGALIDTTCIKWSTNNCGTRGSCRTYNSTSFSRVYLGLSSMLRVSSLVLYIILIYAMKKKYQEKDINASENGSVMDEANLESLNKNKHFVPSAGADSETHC
Experiment: Uptake into stable transfected OATP1B1 HEK 293 cells
Assay type: cell-based
Conditions: uptake into OATP1B1-HEK 293 cells
Class field: derived from Inhibition Rifampicine; ranges low (below 70 % inhibition), middle (70 % inhibition to below 90 % inhibition), high (90 % inhibition or more)

q: // return the class label for "CCOCCOCCOc1ccc(CCC[C@@H](C(=O)O)N2CCN(CC(=O)[O-])CCN(CC(=O)[O-])CCN(CC(=O)[O-])CC2)cc1.[Gd+3]"
a: middle

q: // return the class label for "CCOc1ccc(CCCC[C@@H](C(=O)O)N2CCN(CC(=O)[O-])CCN(CC(=O)[O-])CCN(CC(=O)[O-])CC2)cc1.[Gd+3]"
a: high

q: // return the class label for "CCOCCOCCOCCOc1ccc(C[C@H](C(=O)O)N2CCN(CC(=O)[O-])CCN(CC(=O)[O-])CCN(CC(=O)[O-])CC2)cc1.[Gd+3]"
a: low

q: // return the class label for CCOCCOc1ccc(CC(C(=O)O)N2CCN(CC(=O)[O-])CCN(C(COC)C(=O)[O-])CCN(CC(=O)[O-])CC2)cc1.[Gd+3] (centres unmarked)
a: low

q: // return the class label for "CCOCCOCCOc1ccc(CCC[C@@H](C(=O)O)N2CCN([C@H](CO)C(=O)[O-])CCN([C@@H](CO)C(=O)[O-])CCN([C@@H](CO)C(=O)[O-])CC2)cc1.[Gd+3]"
a: middle

q: // return the class label for CCOCCOCCOCCOc1ccc(CC(C(=O)O)N2CCN(CC(=O)[O-])CCN(CC(=O)[O-])CCN(CC(=O)[O-])CC2)cc1.[Gd+3] (centres unmarked)
a: low

q: // return the class label for CCOCCOCCOc1ccc(CC(C(=O)O)N2CCN(CC(=O)[O-])CCN(CC(=O)[O-])CCN(CC(=O)[O-])CC2)cc1.[Gd+3] (centres unmarked)
a: low

q: // return the class label for CCOCCOCCOc1ccc(CCCC(C(=O)O)N2CCN(CC(=O)[O-])CCN(CC(=O)[O-])CCN(CC(=O)[O-])CC2)cc1.[Gd+3] (centres unmarked)
a: middle

q: // return the class label for CCCCOc1ccc(CC(C(=O)O)N2CCN(CC(=O)[O-])CCN(CC(=O)[O-])CCN(CC(=O)[O-])CC2)cc1.[Gd+3] (centres unmarked)
a: high

q: // return the class label for "CCOCCOCCOc1ccc(CCC[C@H](C(=O)O)N2CCN([C@@H](CO)C(=O)[O-])CCN([C@@H](CO)C(=O)[O-])CCN([C@@H](CO)C(=O)[O-])CC2)cc1.[Gd+3]"
a: middle

q: // return the class label for "CCCCOc1ccc(CCCC[C@@H](C(=O)O)N2CCN([C@@H](CO)C(=O)[O-])CCN([C@@H](CO)C(=O)[O-])CCN([C@@H](CO)C(=O)[O-])CC2)cc1.[Gd+3]"
a: middle

q: // return the class label for O=C([O-])CN1CCN(CC(=O)[O-])CCN(C(Cc2ccc(OCC(F)(F)C(F)F)cc2)C(=O)O)CCN(CC(=O)[O-])CC1.[Gd+3] (centres unmarked)
a: high

q: // return the class label for "CCOCCOCCOCCOc1ccc(C[C@@H](C(=O)O)N2CCN(CC(=O)[O-])CCN(CC(=O)[O-])CCN(CC(=O)[O-])CC2)cc1.[Gd+3]"
a: low

q: // return the class label for CCOc1ccc(CCCC(C(=O)O)N2CCN(CC(=O)[O-])CCN(CC(=O)[O-])CCN(CC(=O)[O-])CC2)cc1.[Gd+3] (centres unmarked)
a: high

q: // return the class label for "CCOCCOCCOc1ccc(C[C@H](C(=O)O)N2CCN(CC(=O)[O-])CCN(CC(=O)[O-])CCN(CC(=O)[O-])CC2)cc1.[Gd+3]"
a: low

q: // return the class label for "O=C([O-])CN1CCN(CC(=O)[O-])CCN([C@H](Cc2ccc(OCC(F)(F)F)cc2)C(=O)O)CCN(CC(=O)[O-])CC1.[Gd+3]"
a: high

q: // return the class label for "CCOCCOCCOc1ccc(CCC[C@@H](C(=O)O)N2CCN([C@H](CO)C(=O)[O-])CCN([C@H](CO)C(=O)[O-])CCN([C@H](CO)C(=O)[O-])CC2)cc1.[Gd+3]"
a: middle

---

Assay: Partition coefficient (log P butanol/buffer)
Assay type: physicochemical
Conditions: 1-butanol / 50 mM Tris-HCl, pH 7.4, room temperature
Endpoint: Log P (partition coefficient butanol/buffer)
API note: the answer field is a bare number with no unit suffix.

q: Quick one: Log P (partition coefficient butanol/buffer) for "CCCCOc1cccc(CCC[C@@H](C(=O)O)N2CCN([C@@H](CO)C(=O)[O-])CCN([C@@H](CO)C(=O)[O-])CCN([C@@H](CO)C(=O)[O-])CC2)c1.[Gd+3]" ?
a: 0.12

q: Quick one: Log P (partition coefficient butanol/buffer) for COCC(C(=O)O)N1CCN(CC(=O)[O-])CCN(C(Cc2ccc(OCC(F)(F)C(F)F)cc2)C(=O)[O-])CCN(CC(=O)[O-])CC1.[Gd+3] (stereo not drawn) ?
a: −0.36

q: Quick one: Log P (partition coefficient butanol/buffer) for CCOCCOc1ccc(CC(C(=O)O)N2CCN(CC(=O)[O-])CCN(CC(=O)[O-])CCN(CC(=O)[O-])CC2)cc1.[Gd+3] (stereo not drawn) ?
a: −1.53

q: Quick one: Log P (partition coefficient butanol/buffer) for CCOCCOc1ccc(CC(C(=O)O)N2CCN(CC(=O)[O-])CCN(C(CC)C(=O)[O-])CCN(CC(=O)[O-])CC2)cc1.[Gd+3] (single isomer, unassigned) [Example 8] ?
a: −1.04

q: Quick one: Log P (partition coefficient butanol/buffer) for CCOCCOCCOc1ccc(CCC[C@@H](C(=O)O)N2CCN(C(CO)C(=O)[O-])CCN(C(CO)C(=O)[O-])CCN(C(CO)C(=O)[O-])CC2)cc1.[Gd+3] (mixture of isomers) ?
a: −1.03

q: Quick one: Log P (partition coefficient butanol/buffer) for "CCOc1ccc(CCCC[C@@H](C(=O)O)N2CCN(CC(=O)[O-])CCN(CC(=O)[O-])CCN(CC(=O)[O-])CC2)cc1.[Gd+3]" ?
a: −0.41
